Target: high affinity nicotinic receptors
Assay: Inhibition of L-[3H]nicotine binding to mouse brain membrane preparations
Set-up: species or system Mice (DBA strain)
Details: mouse brain membranes, 2 hr at 4° C., Ki calculated from IC50 by method of Cheng et al.
RECORDED_ENDPOINT: pKi
# pKi: negative log10 of molar concentration; output just the value

Would you please give the reported pKi of CNCCCC(=O)c1cccnc1 with high affinity nicotinic receptors?
5.77
